The values you see were collected from patent US20260092071A1.

- targetDesc: SMARCA2 (Homo sapiens, UniProt P51531)
- Sequence (P51531 whole entry): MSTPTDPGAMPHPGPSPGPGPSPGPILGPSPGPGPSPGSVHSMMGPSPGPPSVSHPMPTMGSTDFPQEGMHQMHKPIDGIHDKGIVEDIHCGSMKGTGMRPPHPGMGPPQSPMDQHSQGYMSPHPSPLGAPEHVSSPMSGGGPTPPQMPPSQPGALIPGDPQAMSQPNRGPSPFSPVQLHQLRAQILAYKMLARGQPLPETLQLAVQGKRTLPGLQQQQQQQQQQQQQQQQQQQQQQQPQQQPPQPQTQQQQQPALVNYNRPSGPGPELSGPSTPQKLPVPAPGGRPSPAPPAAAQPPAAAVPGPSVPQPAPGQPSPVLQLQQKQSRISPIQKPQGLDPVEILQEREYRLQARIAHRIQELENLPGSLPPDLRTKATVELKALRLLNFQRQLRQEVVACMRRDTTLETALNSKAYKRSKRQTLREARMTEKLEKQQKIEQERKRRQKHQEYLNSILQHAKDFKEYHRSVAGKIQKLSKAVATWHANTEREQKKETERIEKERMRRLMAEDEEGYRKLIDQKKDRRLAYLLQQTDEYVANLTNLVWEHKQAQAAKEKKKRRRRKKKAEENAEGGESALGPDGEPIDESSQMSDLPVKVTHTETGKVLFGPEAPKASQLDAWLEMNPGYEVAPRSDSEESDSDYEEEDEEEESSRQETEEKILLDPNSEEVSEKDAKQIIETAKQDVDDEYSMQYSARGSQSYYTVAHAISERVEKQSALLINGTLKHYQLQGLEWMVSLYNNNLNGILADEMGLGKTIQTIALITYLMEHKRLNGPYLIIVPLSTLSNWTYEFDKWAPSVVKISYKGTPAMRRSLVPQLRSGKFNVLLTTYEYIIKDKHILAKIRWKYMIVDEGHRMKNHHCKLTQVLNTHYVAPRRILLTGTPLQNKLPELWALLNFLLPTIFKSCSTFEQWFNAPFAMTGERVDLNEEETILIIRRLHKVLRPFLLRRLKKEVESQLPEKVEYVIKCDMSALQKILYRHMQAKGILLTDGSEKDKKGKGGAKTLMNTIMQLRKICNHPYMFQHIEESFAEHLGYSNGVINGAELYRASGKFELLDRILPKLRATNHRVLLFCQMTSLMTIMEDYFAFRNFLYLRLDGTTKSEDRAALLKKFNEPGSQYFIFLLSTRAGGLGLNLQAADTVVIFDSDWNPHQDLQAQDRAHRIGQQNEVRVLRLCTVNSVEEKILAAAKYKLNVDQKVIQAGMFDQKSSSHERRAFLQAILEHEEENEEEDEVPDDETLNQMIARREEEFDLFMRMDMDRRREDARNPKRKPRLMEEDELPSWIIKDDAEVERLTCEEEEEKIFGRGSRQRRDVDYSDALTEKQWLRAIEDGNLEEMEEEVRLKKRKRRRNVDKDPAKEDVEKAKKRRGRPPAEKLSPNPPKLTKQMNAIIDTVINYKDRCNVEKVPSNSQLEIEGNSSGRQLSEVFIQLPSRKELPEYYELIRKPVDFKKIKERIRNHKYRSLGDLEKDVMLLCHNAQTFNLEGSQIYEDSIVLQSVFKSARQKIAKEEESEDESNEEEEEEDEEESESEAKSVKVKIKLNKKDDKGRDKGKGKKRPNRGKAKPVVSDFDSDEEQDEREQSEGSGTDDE
- protocolDetails: HiBiT assay for protein degradation, Hela SMARCA2-HiBiT cells (A series)
- Type: cell-based
- Parameters: Hela cells were genetically modified via CRISPR/Cas9 to fuse HiBiT to the carboxy terminus of SMARCA2; host or cells: HeLa (CRISPR/Cas9 HiBiT knock-in)
- testSettings: Hela SMARCA2-HiBiT cells, 24 hours treatment; read-out: SMARC A2 Hela HiBit DC50
Parameter DC50: see the listing below.

Solved cases below.
Cc1ncsc1-c1ccc([C@H](CCCCCN2CCC(c3ccc4c(c3)C3(CCCC3)c3nc(=O)c5c(Cl)cccc5n3-4)CC2)NC(=O)[C@@H]2C[C@@H](O)CN2C(=O)[C@@H](NC(=O)C2(F)CC2)C(C)(C)C)cc1 [Compound A2]	< 100 nM
CC(C)(C)[C@@H](C(=O)N1C[C@H](O)C[C@H]1C(=O)N[C@@H](CN1CCOCC1)c1ccc(-c2ccccc2)cc1)n1cc([C@H]2CC[C@H](CN3CCC(c4ccc5c(c4)-n4c(nc(=O)c6c(Cl)cccc64)C54CCCCC4)CC3)CC2)nn1 [Compound A162]	< 10 nM

Dear colleague, I am looking for the recorded DC50 of the following molecule: Cc1ncsc1-c1ccc([C@H](C)NC(=O)[C@@H]2C[C@@H](O)CN2C(=O)[C@@H](NC(=O)CN2CCC(c3ccc4c(c3)C3(CCCCC3)c3nc(=O)c5c(Cl)cccc5n3-4)CC2)C(C)(C)C)cc1 [Compound A5]
< 100 nM
